All figures here come from ChEMBL document CHEMBL3867469.

logD overview
assay: physchem; settings: buffer, pH 6.5
outcome_measure: logD

[[record]]
compound = "CN(C)C(=O)c1ccc2c(c1)c([S+]([O-])c1c(Cl)cccc1Cl)nn2-c1ccc(C(=O)O)cc1 (centres undefined)"
outcome_measure = "logD"
observed = 0.4

[[record]]
compound = "CS(=O)(=O)c1ccc2c(c1)c(Oc1c(Cl)cccc1Cl)nn2-c1ccc(C(=O)O)cc1"
outcome_measure = "logD"
observed = 1.7

[[record]]
compound = "O=C(O)c1ccc(-n2nc(Oc3c(Cl)cccc3Cl)c3ncccc32)cc1"
outcome_measure = "logD"
observed = 1.3

[[record]]
compound = "Cc1cc(C)c(Sc2nn(-c3ccc(C(=O)O)cc3)c3ccc(C(=O)N(C)C)cc23)c(C)c1"
outcome_measure = "logD"
observed = 2.1

